Where these numbers come from: PubChem BioAssay AID770

test: HT29 colon tumor cell growth inhibition, primary screen, imaging, high content imaging, 24 h, CellTiter-Glo (AID 770); conditions: HT29 cell number by imaging, measured here: percent cells with condensed nuclei, at 10 µM, stronger effect = higher value;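 further: share of cells whose nuclear area falls below control median minus 1.5 SD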
In all, about 3,300 compounds went through this assay and fewer than 10 were called active. A selection follows.
Note to self: values exactly at 5% are fulfilled. So condensed nuclei at or above 5% is fulfilled, below is not fulfilled.

Reported condensed nuclei reaches at least 5% for c1ccc(N2CCN(c3nc(-c4ccccn4)nc4ccccc34)CC2)cc1 ?
fulfilled

Request: CC1(C)Cc2c(c(-c3ccccc3Cl)[nH]c(=O)c2C#N)CO1
not fulfilled

Request: C/C(=N\O)C(=O)NCCCNCCCN(C)C
not fulfilled

Request: CC(C)Cc1nc(N2CCN(C(=O)Cc3ccccc3)CC2)c(C#N)c2c1COC(C)(C)C2
not fulfilled

Request: Cc1cccc(C)c1NC(=O)CSCC(=O)c1ccc(O)c(O)c1
fulfilled

Request: COCc1[nH]nc2c1C(c1ccccc1OC)C(C#N)=C(N)O2 (stereo unspecified)
not fulfilled
